# TGT: mTOR (Homo sapiens, UniProt P42345)
# Construct: FLAG; made in house
# Sequence (P42345 1362-2549): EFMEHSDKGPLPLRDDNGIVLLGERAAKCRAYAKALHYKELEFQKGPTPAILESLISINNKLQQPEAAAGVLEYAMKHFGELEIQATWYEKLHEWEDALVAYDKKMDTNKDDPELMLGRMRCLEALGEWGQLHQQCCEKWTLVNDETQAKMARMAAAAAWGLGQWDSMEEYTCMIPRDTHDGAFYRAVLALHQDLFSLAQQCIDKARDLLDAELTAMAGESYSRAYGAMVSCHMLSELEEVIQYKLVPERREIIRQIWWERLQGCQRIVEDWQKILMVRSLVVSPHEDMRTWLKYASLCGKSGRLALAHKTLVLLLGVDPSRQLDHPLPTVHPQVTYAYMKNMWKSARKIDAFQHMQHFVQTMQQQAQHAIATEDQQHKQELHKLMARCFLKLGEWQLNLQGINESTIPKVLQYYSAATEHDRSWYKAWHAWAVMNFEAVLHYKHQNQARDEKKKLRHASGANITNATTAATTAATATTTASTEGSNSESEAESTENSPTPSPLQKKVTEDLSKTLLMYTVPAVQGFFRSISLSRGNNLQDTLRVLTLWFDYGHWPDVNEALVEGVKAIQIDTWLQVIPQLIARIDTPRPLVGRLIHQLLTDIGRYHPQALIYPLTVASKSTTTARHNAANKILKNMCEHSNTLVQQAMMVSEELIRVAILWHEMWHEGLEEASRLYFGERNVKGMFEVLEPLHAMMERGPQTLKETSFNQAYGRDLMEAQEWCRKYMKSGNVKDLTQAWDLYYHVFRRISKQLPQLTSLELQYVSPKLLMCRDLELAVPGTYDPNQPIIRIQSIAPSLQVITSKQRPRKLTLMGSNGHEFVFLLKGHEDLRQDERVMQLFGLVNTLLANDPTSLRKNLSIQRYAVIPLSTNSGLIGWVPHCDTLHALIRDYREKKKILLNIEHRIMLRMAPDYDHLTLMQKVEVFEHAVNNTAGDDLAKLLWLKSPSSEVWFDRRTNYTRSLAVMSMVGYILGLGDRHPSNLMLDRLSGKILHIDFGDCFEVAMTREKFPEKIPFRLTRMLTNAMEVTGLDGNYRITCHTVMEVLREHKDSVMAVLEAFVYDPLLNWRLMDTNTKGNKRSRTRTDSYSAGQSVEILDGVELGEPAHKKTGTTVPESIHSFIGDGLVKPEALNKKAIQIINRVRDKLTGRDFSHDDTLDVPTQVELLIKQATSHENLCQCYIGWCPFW
# METHOD: In Vitro mTOR Kinase Assay (Echo), Test (a)(ii)
# Type: biochemical
# EXPERIMENTAL_SETUP: table of enzyme assay Test (a)(ii); read-out: Test (a)(ii) IC50
Rule: IC50 below 10 nM gives Y, anything at or above gives N.

Look over these answered cases.
# COMPOUND, CLASS
rows = [
    ("C[C@H]1COCCN1c1cc(C2(S(=O)(=O)c3ccc(NCCF)c(Cl)c3)CC2)nc(-c2ccc(NC(=O)NCCF)cc2)n1 [Example 95j]", "N"),
    ("CCS(=O)(=O)C1(c2cc(N3CCOC[C@@H]3C)nc(-c3ccc(NC(=O)NCC(F)F)cc3)n2)CC1 [Example 36eg]", "Y"),
    ("C[C@H]1COC[C@H](C)N1c1cc(C2(S(C)(=O)=O)CC2)nc(-c2ccc(NC(=O)NCCF)cc2)n1 [Example 91c]", "Y"),
    ("CNC(=O)Nc1ccc(-c2nc(N3[C@@H](C)COC[C@@H]3C)cc(C3(S(=O)(=O)C4CC4)CC3)n2)cc1 [Example 92c]", "Y"),
]

## Task For this compound, is IC50 lower than 10 nM? C[C@H]1COCCN1c1cc(C2(S(=O)(=O)c3ccccn3)CC2)nc(-c2ccc(NC(=O)NCCN(C)C)cc2)n1 [Example 28f]
## Result N

## Task What about O=C(Nc1ccc(-c2nc(N3CCOCC3)cc(C3(S(=O)(=O)C4CC4)CCCC3)n2)cc1)NC1CC1 [Example 13j] ?
## Result N

## Task What about "C[C@H]1COC[C@H](C)N1c1cc(C2(S(C)(=O)=O)CC2)nc(-c2ccc(NC(=O)NC3CC3)cc2)n1" ?
## Result Y

## Task What about C[C@H]1COCCN1c1cc(C2(S(=O)(=O)C3CCOCC3)CC2)nc(-c2ccc(NC(=O)NCCO)cc2)n1 [Example 94d] ?
## Result N

## Task What about C[C@H]1COCCN1c1cc(C2(S(=O)(=O)c3ccc(Cl)cc3)CCOCC2)nc(-c2ccc(NC(=O)Nc3cnn(C)c3)cc2)n1 [Example 23m] ?
## Result N

## Task What about C[C@H]1COC[C@H](C)N1c1cc(C2(S(=O)(=O)c3ccccc3)CC2)nc(-c2ccc(NC(=O)Nc3cnn(C)c3)cc2)n1 [Example 93e] ?
## Result Y

## Task What about CC(C)CNC(=O)Nc1ccc(-c2nc(N3CCOC[C@@H]3C)cc(C3(S(=O)(=O)CCCO)CC3)n2)cc1 [Example 31d] ?
## Result Y

## Task What about C[C@H]1COCCN1c1cc(C2(S(=O)(=O)CCCO)CCC2)nc(-c2ccc(NC(=O)NC(C)(C)CO)cc2)n1 [Example 43p] ?
## Result N

## Task What about C[C@H]1COCCN1c1cc(C2(S(=O)(=O)CCCO)CCC2)nc(-c2ccc(NC(=O)Nc3ccon3)cc2)n1 [Example 43m] ?
## Result Y

## Task What about Cc1csc(S(=O)(=O)C2(c3cc(N4CCOC[C@@H]4C)nc(-c4ccc(NC(=O)N[C@@H](C)CO)cc4)n3)CC2)n1 [Example 64ac] ?
## Result Y

## Task What about C[C@H]1COCCN1c1cc(C2(S(=O)(=O)c3ccc(F)c(Cl)c3)CC2)nc(-c2ccc(NC(=O)NCCF)cc2)n1 [Example 95d] ?
## Result N
